Reference source for all entries: patent US20250296953A1

test system: 60 different human tumor cell lines; test: NCI Development Therapeutics Program 60 cell line screen, one dose; type: cell-based; details: Renal Cancer, UO-31
Provide the reported Growth Percent of each item.
Numbers only, in %.

response.value for C[C@]12CCc3sc(Nc4cccc(O)c4)nc3C1=CC[C@@H]1[C@@H]2CC[C@]2(C)C(=O)CC[C@@H]12 [IIa.17] (field: Growth Percent) = 22.19

response.value for C[C@]12CC[C@H]3[C@@H](CC=C4c5sc(-c6ccc(O)cc6)nc5CC[C@@]43C)[C@@H]1CC[C@@H]2O [III.5] (field: Growth Percent) = 9.33

response.value for C[C@]12CCc3nc(N)sc3C1=CC[C@@H]1[C@@H]2CC[C@]2(C)C(=NNC(N)=O)CC[C@@H]12 [IVb.1] (field: Growth Percent) = 85.84

Kindly review the next compound as well.
response.value for CN(c1ccccc1)c1nc2c(s1)CC[C@@]1(C)C2=CC[C@@H]2[C@@H]1CC[C@]1(C)C(=O)CC[C@@H]21 [IIa.6] (field: Growth Percent) = 79.34
